target: UniProtKB P00573; test: In vitro transcription yield of mRNA using cap analogs; assay type: biochemical; details: in vitro transcription, 1 μg DNA template, 37° C., 2 hours
Sequence (P00573 whole entry): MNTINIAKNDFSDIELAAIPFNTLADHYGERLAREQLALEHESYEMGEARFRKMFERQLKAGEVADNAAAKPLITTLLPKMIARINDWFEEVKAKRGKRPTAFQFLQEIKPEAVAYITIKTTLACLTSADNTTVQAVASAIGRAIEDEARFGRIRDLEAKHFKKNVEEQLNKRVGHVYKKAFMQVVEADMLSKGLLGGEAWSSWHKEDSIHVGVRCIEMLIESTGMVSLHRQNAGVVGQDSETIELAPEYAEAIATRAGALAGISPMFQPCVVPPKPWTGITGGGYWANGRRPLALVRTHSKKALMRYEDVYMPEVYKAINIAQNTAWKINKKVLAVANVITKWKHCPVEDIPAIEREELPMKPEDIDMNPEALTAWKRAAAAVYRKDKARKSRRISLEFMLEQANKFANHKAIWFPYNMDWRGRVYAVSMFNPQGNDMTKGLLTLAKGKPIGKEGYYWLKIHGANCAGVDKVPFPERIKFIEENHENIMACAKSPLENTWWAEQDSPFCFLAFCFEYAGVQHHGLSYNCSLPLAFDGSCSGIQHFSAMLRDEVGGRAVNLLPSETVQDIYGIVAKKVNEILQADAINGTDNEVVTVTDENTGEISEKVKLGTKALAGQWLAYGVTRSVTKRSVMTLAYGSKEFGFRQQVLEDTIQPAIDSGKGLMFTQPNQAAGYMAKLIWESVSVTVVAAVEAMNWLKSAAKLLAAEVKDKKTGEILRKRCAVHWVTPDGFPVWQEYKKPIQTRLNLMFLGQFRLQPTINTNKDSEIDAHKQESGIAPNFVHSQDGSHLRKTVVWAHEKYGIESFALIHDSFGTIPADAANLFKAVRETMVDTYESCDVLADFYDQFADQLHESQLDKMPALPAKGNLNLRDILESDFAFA
attribute.measured: Yield per unit template (µg)

[[record]]
compound = "CO[C@@H]1[C@H](OP(=O)(O)OC[C@H]2O[C@@H](n3cnc4c(=O)[nH]c(N)nc43)[C@H](O)[C@@H]2O)[C@@H](COP(=O)(O)OP(=O)(O)OP(=O)(O)OC[C@H]2O[C@@H]([n+]3cn(C)c4c(=O)[nH]c(N)nc43)[C@H](O)[C@@H]2C(C)NC(C)=O)O[C@H]1n1cnc2c(N)ncnc21 (stereo partly drawn)"
unit_of_measure = "µg"
numeric_value = 151.8

[[record]]
compound = "COC[C@@H]1[C@H](OP(=O)(O)OC[C@H]2O[C@@H](n3cnc4c(=O)[nH]c(N)nc43)[C@H](O)[C@@H]2O)[C@@H](COP(=O)(O)OP(=O)(O)OP(=O)(O)OC[C@H]2O[C@@H]([n+]3cn(C)c4c(=O)[nH]c(N)nc43)[C@H](O)[C@@H]2O)O[C@H]1n1cnc2c(N)ncnc21"
unit_of_measure = "µg"
numeric_value = 166.1

[[record]]
compound = "CO[C@@H]1[C@H](OP(=O)(O)OC[C@H]2O[C@@H](n3cnc4c(=O)[nH]c(N)nc43)[C@H](O)[C@@H]2O)[C@@H](COP(=O)(O)OP(=O)(O)OP(=O)(O)OC[C@H]2O[C@@H](C[n+]3cn(C)c4c(=O)[nH]c(N)nc43)[C@H](O)[C@@H]2O)O[C@H]1n1cnc2c(N)ncnc21"
unit_of_measure = "µg"
numeric_value = 88.0

